Parameter: melting point. Scope: all listed entries.
measurementKind: melting point

> print(dat)
                                   molecule  valuereported
1         CC1CCC(=O)C1=O (stereo not drawn)  105 to 110 °C
2                    O=C(O)CNC(=O)c1ccccc1O         168 °C
3                                CC(=O)NCCN          47 °C
4                                OCCCCCCCCl          11 °C
5                      CCc1nc(C)c(C=O)[nH]1  104 to 105 °C
6  CC(C)OC(=O)C1=C2c3ncccc3ON2C(Cl)C(Cl)C1Cl (stereo not drawn)          98 °C
7                      CC1=CC(=O)OC(C)(C)O1           7 °C
8                        COc1cccc2onc(N)c12  140 to 142 °C
